Tested on: S. aureus strain USA300-0114
TEST_PROTOCOL: AK assay 384-well format, Prestwick library screening
Format: cell-based, Staphylococcus aureus
STATED_CONDITIONS: Staphylococcus aureus, USA300, 3 h; 50 μM final drug concentration; planktonic; cutoff for positive-scoring molecules 3-fold increase; read-out: AK-based Prestwick Library Screening Results, S. aureus (fold increase in extracellular AK activity)
Structures can show the parent of a compound that is named as a salt.
Kindly supply the reported fold induction at 50 µM values for the records listed here.

# COMPOUND, fold induction at 50 µM
measured = [
    ("CCN(CC)C(C)CN1c2ccccc2Sc2ccccc21 (stereo not shown) [Ethopropazine hydrochloride]", 0.7),
    ("COc1cc(NS(=O)(=O)c2ccc(N)cc2)ncn1", 0.7),
    ("CCCCOC(=O)c1ccc(N)cc1", 1.1),
    ("CCCCC1(COC(=O)CCC(=O)O)C(=O)N(c2ccccc2)N(c2ccccc2)C1=O", 0.6),
    ("C[N+]1(C)CCC(OC(=O)C(O)(c2ccccc2)C2CCCC2)C1 (stereo not shown) [Glycopyrrolate]", 0.7),
]

Give one value of fold induction at 50 µM per listed compound.
1. NS(=O)(=O)c1cc2c(cc1Cl)N=C(CSCc1ccccc1)NS2(=O)=O [Benzthiazide]
2. C[C@]12CC[C@@H]3c4ccc(O)cc4CC[C@H]3[C@@H]1CCC2=O

Response given:
1. 0.8
2. 0.7
